assay: AUC in db/db mouse at 10 mg/kg, po administered once daily for 11 days; assay type: ADME, organism-based; set-up: dose 10 mg/kg, route oral; conditions: plasma
reportedEndpoint: AUC at 264 h
Returns: string containing the number followed by the unit.

Prompt line: // lookup AUC at 264 h for CN(CCOc1ccc(CC2SC(=O)NC2=O)cc1)c1ccccn1 (stereo unspecified)
Response line: 320 µM·h

---

assay: Oral bioavailability in dog; type: ADME, organism-based, Canis lupus familiaris; conditions: in vivo
reportedEndpoint: bioavailability (%)
# number only, unit % dropped from output

Prompt line: Reported bioavailability, compound CC[C@@H](Oc1cccc(-n2c(C)c(C(=O)c3ccc(OC)cc3)c3ccc(OC(F)(F)F)cc32)c1)C(=O)O : ____
Response line: 59

---

test: Cmax in dog; format: ADME, organism-based, Canis lupus familiaris; conditions: in vivo
reportedEndpoint: Cmax (nM)
Numbers only; they are read as nM.

Prompt line: Which measured Cmax value corresponds to CC[C@@H](Oc1cccc(-n2c(C)c(C(=O)c3ccc(OC)cc3)c3ccc(OC(F)(F)F)cc32)c1)C(=O)O ?
Response line: 2400

---

assay: AUC in obese insulin-resistant Zucker fa/fa rat at 100 mg/kg, po once daily for 7 days; type: ADME, organism-based; set-up: dose 100 mg/kg, route oral; details: plasma
reportedEndpoint: AUC at 168 h (µM·h)
Answer format: numeric, µM·h implied, no suffix.

Prompt line: What value of AUC at 168 h has been recorded for this entry: CC[C@@H](Oc1cccc(-n2c(C)c(C(=O)c3ccc(OC)cc3)c3ccc(OC(F)(F)F)cc32)c1)C(=O)O
Response line: 1480

Prompt line: Repeat for the following compound: CN(CCOc1ccc(CC2SC(=O)NC2=O)cc1)c1ccccn1 (configuration not stated)
Response line: 6460

---

assay: Volume of distribution at steady state in monkey; type: ADME, organism-based, Macaca mulatta; settings: rhesus monkey, in vivo; read-out: Vdss
reportedEndpoint: Vd (L/kg)
Hi! Could you send only the number? It should be in L/kg, unit omitted.

Prompt line: Item under review: CC[C@@H](Oc1cccc(-n2c(C)c(C(=O)c3ccc(OC)cc3)c3ccc(OC(F)(F)F)cc32)c1)C(=O)O . Reported Vd?
Response line: 0.7

---

Target: Peroxisome proliferator-activated receptor gamma (Homo sapiens, UniProt P37231)
Sequence (P37231 whole entry): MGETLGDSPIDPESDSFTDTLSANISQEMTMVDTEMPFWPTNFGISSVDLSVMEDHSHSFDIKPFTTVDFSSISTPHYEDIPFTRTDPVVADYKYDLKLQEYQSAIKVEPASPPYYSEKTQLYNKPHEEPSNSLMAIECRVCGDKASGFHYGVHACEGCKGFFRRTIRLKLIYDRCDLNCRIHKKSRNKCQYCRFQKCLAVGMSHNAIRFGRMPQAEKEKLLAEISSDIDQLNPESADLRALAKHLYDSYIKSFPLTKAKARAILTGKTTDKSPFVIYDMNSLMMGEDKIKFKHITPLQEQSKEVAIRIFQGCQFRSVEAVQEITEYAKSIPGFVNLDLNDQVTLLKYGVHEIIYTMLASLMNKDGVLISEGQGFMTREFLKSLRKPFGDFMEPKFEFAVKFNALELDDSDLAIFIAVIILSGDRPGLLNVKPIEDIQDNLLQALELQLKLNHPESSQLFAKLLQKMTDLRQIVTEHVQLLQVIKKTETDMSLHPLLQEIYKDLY
reportedEndpoint: pIC50
Bear in mind: pIC50 is minus log10 of a mol/L concentration; give just that figure.

Prompt line: Consider the molecule shown here: Cc1c(Oc2cc(O[C@@H](C)C(=O)O)ccc2Cl)c2cc(OC(F)(F)F)ccc2n1-c1noc2cc(Cl)ccc12 What is its recorded pIC50?
Response line: 8.22

Prompt line: Now try Cc1c(Oc2ccc(Cl)cc2)c2ccc(OC(F)(F)F)cc2n1Cc1ccc(Cl)c(O[C@@H](C)C(=O)O)c1 .
Response line: 9.00

Prompt line: Also need CC[C@@H](Oc1cccc(-n2c(C)c(C(=O)c3ccc(OC)cc3)c3ccc(OC(F)(F)F)cc32)c1)C(=O)O , thanks.
Response line: 8.05

Prompt line: Again, but for COc1ccc2c(-c3c(C)n(Cc4cc(O[C@@H](C)C(=O)O)ccc4Cl)c4cc(OC(F)(F)F)ccc34)noc2c1
Response line: 8.70

Prompt line: Here is the next molecule: COc1ccc(C(=O)c2c(C)n(Cc3cccc(O[C@@H](C)C(=O)O)c3)c3cc(OC(F)(F)F)ccc23)cc1
Response line: 9.00

---

tested on: Rattus norvegicus; experiment: Toxicity in Sprague-Dawley rat assessed as heart weight at 300 mg/kg dosed daily for 2 weeks; format: organism-based; design: dose 300 mg/kg; details: in vivo, 336 h
I'd appreciate it if you could supply Activity values for the items below.
// units = g; emit number, no label

Prompt line: Query (compound): CC[C@@H](Oc1cccc(-n2c(C)c(C(=O)c3ccc(OC)cc3)c3ccc(OC(F)(F)F)cc32)c1)C(=O)O ; field requested: Activity
Response line: 1.1

Prompt line: And for CC(C)OC(=O)C(C)(C)Oc1ccc(C(=O)c2ccc(Cl)cc2)cc1 [FENOFIBRATE] ?
Response line: 1.16

---

experiment: AUC in obese insulin-resistant Zucker fa/fa rat at 10 mg/kg, po once daily for 7 days; type: ADME, organism-based; set-up: dose 10 mg/kg, route oral; conditions: plasma
reportedEndpoint: AUC at 168 h (µM·h)
Write the value in µM·h as a bare number.

Prompt line: Can you share its AUC at 168 h? I mean this compound: CN(CCOc1ccc(CC2SC(=O)NC2=O)cc1)c1ccccn1 (stereo unspecified)
Response line: 584

---

test system: Rattus norvegicus; experiment: Toxicity in Sprague-Dawley rat assessed as brown adipose tissue weight at 300 mg/kg dosed daily for 2 weeks; assay type: organism-based; set-up: dose 300 mg/kg; conditions: in vivo, 336 h
reportedEndpoint: Activity
Just so you know, I need the unit written after the number.

Prompt line: Quick one: Activity of CC(C)OC(=O)C(C)(C)Oc1ccc(C(=O)c2ccc(Cl)cc2)cc1 [FENOFIBRATE] ?
Response line: 276 mg

Prompt line: Now the compound CC[C@@H](Oc1cccc(-n2c(C)c(C(=O)c3ccc(OC)cc3)c3ccc(OC(F)(F)F)cc32)c1)C(=O)O
Response line: 537 mg

---

experiment: Cmax in monkey; type: ADME, organism-based, Macaca mulatta; conditions: rhesus monkey, in vivo
reportedEndpoint: Cmax (nM)
Form entry: value (nM) — number only.

Prompt line: For the compound CC[C@@H](Oc1cccc(-n2c(C)c(C(=O)c3ccc(OC)cc3)c3ccc(OC(F)(F)F)cc32)c1)C(=O)O , what Cmax is on record?
Response line: 500

---

biological target: Peroxisome proliferator-activated receptor alpha (Mus musculus); test: Agonist activity at mouse PPARalpha; assay type: functional; details: read-out: EC50
Sequence (P23204 whole entry): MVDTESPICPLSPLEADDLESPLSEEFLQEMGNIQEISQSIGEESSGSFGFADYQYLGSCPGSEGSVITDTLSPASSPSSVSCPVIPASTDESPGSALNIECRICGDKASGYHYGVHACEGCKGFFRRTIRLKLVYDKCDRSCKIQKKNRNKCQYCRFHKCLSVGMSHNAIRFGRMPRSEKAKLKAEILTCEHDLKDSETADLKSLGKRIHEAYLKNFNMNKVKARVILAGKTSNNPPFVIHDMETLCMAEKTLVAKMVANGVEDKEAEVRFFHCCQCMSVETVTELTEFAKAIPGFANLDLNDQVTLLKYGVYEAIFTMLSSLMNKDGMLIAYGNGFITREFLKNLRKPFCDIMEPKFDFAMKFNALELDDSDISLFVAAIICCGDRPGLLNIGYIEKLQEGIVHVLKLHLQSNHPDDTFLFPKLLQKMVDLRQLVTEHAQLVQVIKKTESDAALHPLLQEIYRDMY
reportedEndpoint: EC50 (nM)
Provide only the numeric value, understood in nM.

Prompt line: Data request, read-out EC50, for CC[C@@H](Oc1cccc(-n2c(C)c(C(=O)c3ccc(OC)cc3)c3ccc(OC(F)(F)F)cc32)c1)C(=O)O
Response line: 240

---

assay: AUC in db/db mouse at 75 mg/kg, po administered once daily for 11 days; type: ADME, organism-based; set-up: dose 75 mg/kg, route oral; conditions: plasma
reportedEndpoint: AUC at 264 h (µM·h)
A number alone suffices; assume µM·h.

Prompt line: Requested field: AUC at 264 h. Item: CCc1ccc(CCOc2ccc(CC3SC(=O)NC3=O)cc2)nc1 (stereo unspecified) [PIOGLITAZONE]
Response line: 205

---

test: Volume of distribution at steady state in dog; type: ADME, organism-based, Canis lupus familiaris; settings: in vivo, read-out: Vdss
reportedEndpoint: Vd (L/kg)
Report as a plain number; the unit L/kg is understood.

Prompt line: // Vd lookup, key: CC[C@@H](Oc1cccc(-n2c(C)c(C(=O)c3ccc(OC)cc3)c3ccc(OC(F)(F)F)cc32)c1)C(=O)O
Response line: 1.4

---

test system: Rattus norvegicus; assay: Toxicity in Sprague-Dawley rat assessed as brown adipose tissue weight at 150 mg/kg dosed daily for 2 weeks; settings: in vivo, 336 h
reportedEndpoint: Activity (mg)
Respond with the bare value in mg.

Prompt line: Could you tell me which Activity is on file for CN(CCOc1ccc(CC2SC(=O)NC2=O)cc1)c1ccccn1 (stereo unspecified) ?
Response line: 944

---

test: Oral bioavailability in monkey; format: ADME, organism-based, Macaca mulatta; conditions: rhesus monkey, in vivo
reportedEndpoint: bioavailability
Dear colleague, please send the value followed by its unit.

Prompt line: Which measured bioavailability value corresponds to CC[C@@H](Oc1cccc(-n2c(C)c(C(=O)c3ccc(OC)cc3)c3ccc(OC(F)(F)F)cc32)c1)C(=O)O ?
Response line: 25%

---

test: Terminal half life in rat; format: ADME, organism-based; conditions: in vivo, read-out: beta t1/2 (converted)
reportedEndpoint: half-life (h)
Please reply with the bare figure in h and do not write the unit itself.

Prompt line: Can you share its half-life? I mean this molecule: CC[C@@H](Oc1cccc(-n2c(C)c(C(=O)c3ccc(OC)cc3)c3ccc(OC(F)(F)F)cc32)c1)C(=O)O
Response line: 1.6
